All values here come from patent EP4796551A1.

Experiment: Ribogreen assay, mRNA encapsulation efficiency of LNP
Type: physicochemical
Details: Table 1; mRNA-LNP formulation phospholipid:CL4F6:Chol:PEG-DMG 10:50:40:1.0, Fluc mRNA
Method: Ethanol solutions containing each phospholipid, CL4F6, Chol, and PEG2000-dimirystoylglycerol (PEG-DMG) at the molar ratio of 10:50:40:1.0 were prepared at the total lipid concentration of 16 mM. […] The ζ-average particle size, polydispersity index (PDI), and ζ-potential of the LNPs were measured by means of a Zetasizer Nano ZS ZEN3600 instrument (Malvern Instruments). The encapsulation efficiency and total concentration of mRNA were measured by a Ribogreen assay according to a conventional method.
Recorded mRNA encapsulation rate % by entry
Give the quantity in %, number only.

Consider the reported mRNA encapsulation rate % for these molecules:
Name the reported mRNA encapsulation rate % value associated with the molecule `CCCCCCCC/C=C\CCCCCCCC(=O)OC[C@H](COP(=O)(O)OCCNCCC(=O)OCCCC)OC(=O)CCCCCCC/C=C\CCCCCCCC` 91.2

Name the reported mRNA encapsulation rate % value associated with the molecule `CCCCCCCC/C=C\CCCCCCCC(=O)OC[C@H](COP(=O)(O)OCCNCCC(=O)OCCCCCC)OC(=O)CCCCCCC/C=C\CCCCCCCC` 91.5

Name the reported mRNA encapsulation rate % value associated with the molecule CCCCCCCCCCCCCCCCCC(=O)OC[C@H](COP(=O)([O-])OCC[N+](C)(C)C)OC(=O)CCCCCCCCCCCCCCCCC [DSPC, reference compound] 95.7

Name the reported mRNA encapsulation rate % value associated with the molecule `CCCCCCCC/C=C\CCCCCCCCOC(=O)CCNCCOP(=O)(O)OC[C@@H](COC(=O)CCCCCCC/C=C\CCCCCCCC)OC(=O)CCCCCCC/C=C\CCCCCCCC` 93.9

Name the reported mRNA encapsulation rate % value associated with the molecule `CCCCCCCC/C=C\CCCCCCCC(=O)OC[C@H](COP(=O)(O)OCCNCCC(=O)OCCCCCCCCCCCC)OC(=O)CCCCCCC/C=C\CCCCCCCC` 94.2

Further cases:
Name the reported mRNA encapsulation rate % value associated with the molecule `CCCCCCCC/C=C\CCCCCCCC(=O)OC[C@H](COP(=O)(O)OCCNCCC(=O)OCCCCCCCCCC)OC(=O)CCCCCCC/C=C\CCCCCCCC` 93.1

Name the reported mRNA encapsulation rate % value associated with the molecule CCCCCCCC/C=C\CCCCCCCC(=O)OC[C@H](COP(=O)(O)OCCN)OC(=O)CCCCCCC/C=C\CCCCCCCC [DOPE, reference compound] 93.0

Name the reported mRNA encapsulation rate % value associated with the molecule `CCCCCCCC/C=C\CCCCCCCC(=O)OC[C@H](COP(=O)(O)OCCNCCC(=O)OCCCCCCCC)OC(=O)CCCCCCC/C=C\CCCCCCCC` 92.6

----------
Experiment: Particle size, PDI and ζ-potential of mRNA-LNP (Zetasizer Nano ZS)
Type: physicochemical
Conditions: Table 2; mRNA-LNP formulation phospholipid:CL4F6:Chol:PEG-DMG 10:50:40:1.0, Fluc mRNA
readout name: PDI
Keep it simple and answer with nothing but the number.

Consider the reported PDI for these molecules:
Name the reported PDI value associated with the molecule CCCCCCCC/C=C\CCCCCCCC(=O)OC[C@H](COP(=O)(O)OCCNCCC(=O)OCC(CCCC)CCCCCC)OC(=O)CCCCCCC/C=C\CCCCCCCC (stereo partly drawn) 0.21

Name the reported PDI value associated with the molecule CCCCCCCC/C=C\CCCCCCCC(=O)OC[C@H](COP(=O)(O)OCCN)OC(=O)CCCCCCC/C=C\CCCCCCCC [DOPE, reference compound] 0.13

Name the reported PDI value associated with the molecule CCCCCCCC/C=C\CCCCCCCC(=O)OC[C@H](COP(=O)(O)OCCNCCC(=O)OCC(CC)CCCC)OC(=O)CCCCCCC/C=C\CCCCCCCC (stereo partly drawn) 0.07

Further cases:
Name the reported PDI value associated with the molecule CCCCCCCC/C=C\CCCCCCCC(=O)OC[C@H](COP(=O)(O)OCCNCCC(=O)OCCC(C)CCC=C(C)C)OC(=O)CCCCCCC/C=C\CCCCCCCC (stereo partly drawn) 0.07

Name the reported PDI value associated with the molecule CCCCCCCC/C=C\CCCCCCCC(=O)OC[C@H](COP(=O)(O)OCCNCCC(=O)OCC(CCC)CCCCC)OC(=O)CCCCCCC/C=C\CCCCCCCC (stereo partly drawn) 0.08

Name the reported PDI value associated with the molecule CCCCCCCC/C=C\CCCCCCCC(=O)OC[C@H](COP(=O)(O)OCCNCCC(=O)OCC(C)CCC)OC(=O)CCCCCCC/C=C\CCCCCCCC (stereo partly drawn) 0.21
